System: A549 NSCLC
Assay: NCI tumour cell line growth inhibition, 48 h
reported metric: GI50

Example entries and their recorded answers appear below.
molecule	GI50
C=C1C(=O)O[C@H]2[C@H]1CC/C(COC(=O)/C=C\C(=O)NCc1ccc(Cn3c(=O)sn(CCCC)c3=O)cc1)=C\CC[C@@]1(C)O[C@@H]21	1.56 µM
CSc1ccc2c(c1)C(=O)c1c-2n(CCCBr)c(=O)c2cc([N+](=O)[O-])ccc12	7.61 µM
N=C(N)c1ccc2nc(-c3cc(CC(=O)N[C@@H](CC(=O)O)C(=O)O)cc(-c4cc(S(N)(=O)=O)ccc4O)c3O)[nH]c2c1	> 100 µM
CCN1C(=O)N(CC)C2C1NN=c1s/c(=C3\C(=O)N(CC(C)(C)C)c4ccccc43)c(=O)n12 (stereo not given)	4.35 µM
CC1=C(C(=O)Nc2ccc(Cl)c(Cl)c2)C(c2cccc(Oc3ccccc3)c2)NC(=O)N1 (stereo not given)	3.94 µM
C1=C\COCc2cc(ccc2OCCN2CCCC2)Nc2nccc(n2)-c2cccc(c2)COC/1	2.03 µM
CN(CCO)c1ccc(N2Cc3ccccc3OC3=C2C(=O)c2c(O)ccc(O)c2C3=O)cn1	2.08 µM
O=C1c2ccccc2-c2c1c1ccccc1c(=O)n2CCCCl	3.23 µM
CCn1c(=O)c2c(=O)c3c4c(oc3oc2c2ccccc21)C(=O)c1ccccc1C4=O	> 100 µM
CC(=O)[O][Ga]([Br])[O]C(C)=O	> 100 µM

Provide the reported GI50 of each entry below, same order.
1. CCCOc1ccc2sc(NC(=O)OC)nc2c1
2. O=C(CSC1CCc2ccccc21)N/N=C/c1ccccc1O (stereo not given)
3. O=C1NC(=O)C(c2cccc([N+](=O)[O-])c2)=C1Nc1cc(Cl)c(O)c(Cl)c1
4. O=C(Nc1ccc(-n2ccc3c(NC(=O)c4ccccc4)nccc32)cc1)Nc1ccc(Cl)c(Cl)c1
5. CCCCCOc1ccc(/C=N/Nc2cc(C)nc3ccc(Br)cc23)cc1

RESULT:
4.2 µM
4.81 µM
> 25 µM
1.01 µM
1.9 µM

###

For each record, write down the corresponding TGI.
System: LOX IMVI melanoma
Assay: NCI tumour cell line growth inhibition, 48 h
Give bare numbers, in µM.

Example entries and their recorded answers appear below.
molecule	unit string	TGI
O=C(Nc1ccc(F)cc1)c1cc(S(=O)(=O)Nc2nc3ccccc3o2)c(SCc2ccccc2)cc1Cl	µM	34.2
CNC(=S)N=Nc1c(O)n(CN2CCOCC2)c2ccc([N+](=O)[O-])cc12	µM	31.8
Cc1cc(C)nc(NS(=O)(=O)c2ccc(NC(=O)c3cccc4c(Nc5ccc(S(N)(=O)=O)cc5)c5ccccc5nc34)cc2)n1	µM	99.8
CN1C(=O)c2ccccc2OC12C=Cc1ccc(O)cc1O2 (stereo unspecified)	µM	26.8

Now for another entry.
QUERY: Read the entry `O=C(Oc1ccccc1)N1c2ccccc2[C@@]23O[C@]24CCC[C@H]3C#C/C=C\C#C[C@H]14` and write its reported TGI.
RESULT: 25.6

###

System: SK-MEL-2 melanoma
Test: NCI tumour cell line growth inhibition, 48 h
reported metric: TGI (µM)
Give bare numbers, in µM.

Example entries and their recorded answers appear below.
molecule	target desc	TGI / µM
CN1C(=O)c2ccccc2OC12C=Cc1ccc(O)cc1O2 (stereo unspecified)	SK-MEL-2 melanoma	56.1
COC(=O)C1=C(C(=O)Nc2cccnc2Cl)N(c2ccc(OC)cc2[N+](=O)[O-])C(c2ccc(C)cc2)=CC1c1ccc(OC)cc1OC (stereo unspecified)	SK-MEL-2 melanoma	65
COC(=O)[C@H](Cc1c[nH]c2ccccc12)NC(=O)c1ccc(CNC(=O)/C(C)=C/c2ccccc2)cc1	SK-MEL-2 melanoma	27.2
C1=C\COCc2cc(ccc2OCCN2CCCC2)Nc2nccc(n2)-c2cccc(c2)COC/1	SK-MEL-2 melanoma	5.51

Now for another entry.
QUERY: Read the entry `COc1cc(O)c(C(=O)/C=C/c2ccc(O)cc2)cc1Oc1ccc(/C=C/C(=O)c2ccc(O)cc2O)cc1` and write its reported TGI.
RESULT: 21.9
